Each item that follows carries a reported growth.
- Tested on: CCRF-CEM leukemia
- assay-summary: NCI-60 one-dose screen, 48 h (100 = growth as untreated, 0 = no growth, -100 = all killed)
- conditions-used: 10 µM unless noted
- Protocol: Growth inhibition of the CCRF-CEM human tumor cell line is measured as a screen for anti-cancer activity. Cells are grown in 96 well plates and exposed to the test compound for 48 hours. Compounds are tested at a single concentration, which is 10^-5 M for most compounds. The reported endpoint is percent growth (GI% or GIPRCNT), where numbers from 0 - 100% represent growth inhibition, and numbers from -100% - 0 represent cell death. For example, a value of 40 represents 60% growth inhibition. […]
About 83,000 compounds went through this panel and 20% of them were active in at least one assay; those are over-represented in the sample as a whole.
test-readout: growth (%)

CC(=O)OC/C(C)=C\CC(C)COC(C)=O (centres undefined)
96.9
OCC1OC(n2ccc3c2ncn2ncnc32)C(O)C1O (centres undefined)
14.1
O=C(NC(=S)N1CC=CCC1)c1ccccc1
121
Nc1ccc(F)cc1F
102
COc1cc(C(=O)NC(=S)NCc2ccncc2)cc(OC)c1OC
99.5
Cc1cc(NC(=O)c2ccccc2)c(Cl)cc1N
47.9
CNc1ccccc1C(N)=O
102
CCCCc1ccc2nc(NC(=O)OC)[nH]c2c1
-15.5
CCOc1ccc(C(=O)O)cc1
105
CCOC(=O)CO
102
N#Cc1ccc(OC(=O)Nc2c(Cl)cc(Cl)cc2Cl)cc1
99.3
Nc1ccc2ccccc2c1-c1c(N)ccc2ccccc12
12.9
Cc1ccc(C)c2c1CCC2=O
-32.7
COc1cccc(C(=O)NNC(=O)c2cccc3ccccc23)c1
104

---

- Tested on: SNB-75 CNS
- assay-summary: NCI-60 one-dose screen, 48 h (100 = growth as untreated, 0 = no growth, -100 = all killed)
- conditions-used: 10 µM unless noted
The panel holds about 83,000 compounds, 20% with a hit somewhere; the sample as a whole holds those more often. The source made the active and inactive calls. The calls were made as follows: active = growth percent below 10; inactive = the rest.
test-readout: growth

O=C(NCc1ccco1)Nc1cccc2c(NC(=O)NCc3ccco3)cccc12
49.7% [100 µM] (inactive)
Cc1cccc(C)c1NC(=S)/N=C\c1c(O)[nH]c(=O)[nH]c1=O
85.1% (inactive)
Clc1cccc(Cl)c1CSc1nc2ccccc2n2cccc12
86.5% (inactive)
O=C(N/N=C\c1ccc(Cl)cc1Cl)c1ccncc1
77.4% (inactive)
Cc1cc(Cc2ccccc2)c(O)c(Cc2ccccc2)c1
75.5% (inactive)
C=CCC(O)C=C (configuration not stated)
99.3% (inactive)
CCOC(=O)c1cc(Cl)c(O)c(Cl)c1
103% (inactive)

---

- Test system: SK-MEL-5 melanoma
- assay-summary: NCI-60 one-dose screen, 48 h (100 = growth as untreated, 0 = no growth, -100 = all killed)
- conditions-used: 10 µM unless noted
The panel holds about 83,000 compounds, 20% with a hit somewhere; the sample as a whole holds those more often.
Please note: Criterion met applies when growth is 90% or greater, and Criterion not met applies otherwise.

C/C(O)=C(/C=N/C(=S)Nc1ccccc1)C(=O)Nc1ccccc1C
Criterion met
Cc1ccccc1NC(=O)Oc1ccc(Cl)cc1C(=O)c1ccccc1
Criterion met
N#Cc1ccc2nc[nH]c2c1
Criterion met
CCN(Cc1ccc(Cl)c(Cl)c1)c1ccc2nc(N)nc(N)c2c1C
Criterion not met
O=C(NC1CCCCC1)c1ccc(Cl)cc1
Criterion met
Nc1ccn(C2CC(N)C(CO)O2)c(=O)n1 (stereo not drawn)
Criterion not met
C/C(=N\O)c1ccccn1
Criterion met
NC(CCl)=NCC12CC3CC(CC(C3)C1)C2
Criterion not met
O=S(=O)(OCCOS(=O)(=O)c1ccccc1)c1ccccc1
Criterion met
CCCCN(C(=O)CC)c1ccccc1
Criterion met
CN(C)Cc1ccccn1
Criterion met
O=[n+]1ccn([O-])c2ccccc21
Criterion met

---

- System: A498 renal
- assay-summary: NCI-60 one-dose screen, 48 h
- conditions-used: 10 µM unless noted
About 83,000 compounds went through this panel and 20% of them were active in at least one assay; those are over-represented in the sample as a whole. The source made the active and inactive calls. Rule for the calls: active = growth percent below 10; inactive = the rest.
Labels: active, inactive

O=C1NC(=O)/C(=C\c2ccncc2)N1
inactive
O=C(Nc1cccc(Cl)c1)c1ccc(Cl)cc1Cl
inactive
CCCc1cccc(CCC)c1NC(=O)Nc1cc(Cl)cc(Cl)c1
inactive
CC1(C)OC(=O)CC1=O
inactive
CC(=O)c1ccc(C)cc1
inactive
O=C(c1ccccc1O)N1CCCC1
inactive
OCC1OC(n2ccc3c2ncn2ncnc32)C(O)C1O (centres undefined)
active
NCCCN1CCCC1=O
inactive
CCCCCCCCCc1ccc(OC(C)=O)cc1
inactive
Nc1ccc(F)c(Cl)c1F
inactive
CN1C(=O)NC(c2ccc(Cl)cc2)(c2ccc(Cl)cc2)C1=O
inactive
COC1CC(OC(=O)c2ccc([N+](=O)[O-])cc2)C(COC(=O)c2ccc([N+](=O)[O-])cc2)O1 (centres undefined)
inactive
OCCc1ccc(Cl)cc1
inactive
O=S(=O)(O)c1cccc2cccnc12
inactive
COC(c1ccc2c(c1)OCO2)C(C)Br (centres undefined)
inactive
CN(CCCN(C)CCC1CCCCC1)CCC1CCCCC1
inactive
CCCCCCCCCCCCCCCCCC(=O)NCCNC(=O)CCCCCCCCCCCCCCCCC
inactive
CCC(=O)Oc1c(C)cc(O)c2ccccc12
inactive
Cc1cc(CO)c(O)c(CO)c1
inactive
CCN(Cc1ccc(Cl)c(Cl)c1)c1ccc2nc(N)nc(N)c2c1C
active
C1C[S+]2CC[S+]1CC2
inactive
C=CCC(O)C=C (centres undefined)
inactive
Nc1nc(Cl)cc(Cl)n1
inactive
CS(=O)CC(=N\O)/C(CS(C)=O)=N\O (centres undefined)
inactive
CC(C)=CCC[C@@H](C)[C@H]1CC[C@@]2(C)C3=C(CC[C@]12C)[C@@]1(C)CC[C@H](O)C(C)(C)[C@@H]1CC3
inactive
COc1ccc2c(ccc[n+]2C)c1
inactive
Cc1nc(O)cc(=O)[nH]1
inactive
C#CCSc1nnnn1-c1ccccc1
inactive
Clc1ccc(/C=C/c2ccccn2)cc1
inactive

---

- Tested on: SR leukemia
- assay-summary: NCI-60 one-dose screen, 48 h
- conditions-used: 10 µM unless noted
Compounds without any hit were thinned out: in the full panel of roughly 83,000, 20% have a hit. The source made the active and inactive calls. The calls were made as follows: active = growth percent below 10; inactive = the rest.
Labels: yes for active, no for inactive

Cc1ccc(O)c(N)c1
no
O=[N+]([O-])c1c(Cl)ncnc1Cl
no
O=C(O)c1cccc(-n2ncc(Cl)c(Cl)c2=O)c1
no
NC(=O)OCCO
no
N#Cc1ccc(OC(=O)Nc2cc(Cl)cc(Cl)c2)cc1
yes
Cc1cccnc1NC1OC(=O)c2ccccc21 (configuration not stated)
no
CC12CCC3c4ccc(O)cc4CCC3C1CCC2=O (configuration not stated)
no

---

- Tested on: SNB-75 CNS
- assay-summary: NCI-60 one-dose screen, 48 h (100 = growth as untreated, 0 = no growth, -100 = all killed)
- conditions-used: 10 µM unless noted
This is part of a sample that, as a whole, favours compounds with a hit. Of some 83,000 tested, about 20% had one in any assay. The source made the active and inactive calls. Rule for the calls: active = growth percent below 10; inactive = the rest.
test-readout: growth

CC(=O)N=c1ccc2nc3c(cc(N)c4ccccc43)oc-2c1
34% (inactive)
COC(=O)c1ccccc1C(=O)c1c(C)cc(C)cc1C
96.5% (inactive)
CC(C)N1CC(=O)N2CSCC2C1=O (configuration not stated)
99.3% (inactive)
Cc1ccccc1NC(=O)Oc1ccc(Cl)cc1C(=O)c1ccccc1
77.7% (inactive)
COC1CC(OC(=O)c2ccc([N+](=O)[O-])cc2)C(COC(=O)c2ccc([N+](=O)[O-])cc2)O1 (configuration not stated)
87.3% (inactive)
C/C(=N\O)c1ccccn1
96.9% (inactive)
Nc1cc2c(cc1Cl)C(=O)c1ccccc1C2=O
30.9% (inactive)
O=C(O)c1ccc([N+](=O)[O-])cc1S(=O)(=O)O
118% (inactive)
c1cc(CNCCNCc2ccncc2)ccn1
92.5% (inactive)
NNc1ncccn1
80.2% (inactive)
NC(=O)NCCO
105% (inactive)
CC(=O)[C@@]1(O)CC[C@H]2[C@@H]3CC[C@@H]4CC(=O)CC[C@]4(C)[C@H]3[C@@H](O)C[C@@]21C
92.7% (inactive)

---

- System: CCRF-CEM leukemia
- assay-summary: NCI-60 one-dose screen, 48 h
- conditions-used: 10 µM unless noted
- Experimental: Growth inhibition of the CCRF-CEM human tumor cell line is measured as a screen for anti-cancer activity. Cells are grown in 96 well plates and exposed to the test compound for 48 hours. Compounds are tested at a single concentration, which is 10^-5 M for most compounds. The reported endpoint is percent growth (GI% or GIPRCNT), where numbers from 0 - 100% represent growth inhibition, and numbers from -100% - 0 represent cell death. For example, a value of 40 represents 60% growth inhibition. […]
About 83,000 compounds went through this panel and 20% of them were active in at least one assay; those are over-represented in the sample as a whole. Calls of active or inactive are those of the source. Rule for the calls: active = growth percent below 10; inactive = the rest.
Labels: active, inactive

CCCNS(=O)(=O)c1ccc(Cl)cc1
inactive
CNc1ccccc1C(=O)N/N=C/C=C/c1ccccc1
inactive
Cc1[nH]c(=S)[nH]c(=O)c1C
inactive
Cc1cc(Nc2ccc3c(c2)OCO3)c2cc3c(cc2n1)OCO3
active
CSCCC(NC(=O)C(Cl)Cl)C(=O)O (stereo not given)
inactive
CCOc1ccc(C(=O)NCC(C)C)cc1
inactive
CC1CN(CCO)CC(C)O1 (stereo not given)
inactive
N#CCCN1C(=O)CCC1C(=O)O (stereo not given)
inactive
CC(C)NC(=O)OCc1c(COC(=O)NC(C)C)c(-c2ccc(Cl)cc2)n2c1CCC2
inactive
NC(=O)NCCO
inactive
C1C[S+]2CC[S+]1CC2
inactive
CC(=O)NNC(=S)N/C=C/c1c(C)ccc([N+](=O)[O-])c1[N+](=O)[O-]
inactive
CCCCNc1ccc(-c2ccc(NCCCC)cc2)cc1
inactive
CCOC(=O)CNC
inactive
CCCCCCCCCCCCCC/C=C\C(CC(=O)O)C(=O)O (stereo not given)
active
O=[N+]([O-])c1c(Cl)ncnc1Cl
inactive
Clc1ccc(C(SCc2ccccc2)SCc2ccccc2)cc1
inactive
COc1ccc(C2CC(c3ccccc3)=Nc3ccccc3S2)cc1 (stereo not given)
inactive
CC(=O)NC(CCC(=O)c1ccccc1)C(=O)O (stereo not given)
inactive
CC(C)c1ccc(C(=O)OCCCl)cc1
inactive
CC(C)C(=O)OCCOc1ccc(C(C)(C)C)cc1
inactive
CCCCN(C(=O)CC)c1ccccc1
active
Cc1cc(Cc2ccccc2)c(O)c(Cc2ccccc2)c1
inactive
CC(=O)c1cccc(NS(=O)(=O)c2ccc(C)cc2)c1
inactive
Clc1ncnc2nc[nH]c12
inactive
NC(CO)(CO)c1ccccc1
inactive
Cc1ccc2nc(N)nnc2c1
inactive
Cc1[nH]n(-c2ccccc2)c(=O)c1C=NC(=S)C(N)=S
inactive
Cc1[nH]nc(C(N)=O)c1[N+](=O)[O-]
inactive
C[n+]1c(/C=C\C=C\N2CCCCC2)sc2ccccc21
active
CSc1nc2[nH]ncc2c(=O)[nH]1
inactive
Cc1ccc[n+](CCC(N)=O)c1
inactive
C/C(=N\N=C(/C)c1cccc([N+](=O)[O-])c1)c1cccc([N+](=O)[O-])c1
inactive
CCCCCCCCCCCCCCCCOc1ccccc1NC(=O)CC(C)=O
inactive
COc1ccc(C)cc1NC(=O)SC(C)C
inactive
Nc1ncnc(Nc2ccccc2)n1
inactive
C=CCc1cc(OC)c(O)c(OC)c1
inactive
NC(=S)N/N=C/c1ccc(OC(=O)COc2ccc(Cl)cc2)cn1
inactive
Cc1cccnc1NC1OC(=O)c2ccccc21 (stereo not given)
inactive
C=C1SC(=Nc2c(C)cccc2C)N(c2nc(Cl)nc(Cl)n2)C12CCCCC2
inactive
COc1ccc(/C=N/NC(=O)COCC(=O)N/N=C/c2ccc(OC)cc2)cc1
inactive
c1ccc(-c2ccc3ccccc3c2)cc1
inactive
CCOC(=O)C(COS(C)(=O)=O)(COS(C)(=O)=O)C(=O)OCC
inactive
Cc1cc(C(=O)NN)c(C#N)c(=O)[nH]1
inactive
Oc1ccc2ccccc2c1CN1CCOCC1
inactive
CCCOCc1cn[nH]n1
inactive
O=C(OCc1ccccc1)n1nnc2ccccc21
inactive
CC(=O)Oc1c(Cl)cccc1-c1ccccc1
inactive
Nc1c(Br)cc(O)c2c1C(=O)c1ccccc1C2=O
inactive
C/C=C/C1OCC(CC)C(CCC)O1 (stereo not given)
inactive
COc1ccc(C(=O)/C(=N/Nc2ccccc2)c2ccc(OC)cc2)cc1
inactive
C=CCc1cc(OC)c(OC)c(OC)c1
inactive
O=C(O)c1cc(I)ccc1O
inactive
Nc1cc(F)ccc1[N+](=O)[O-]
inactive
O=C(Nc1c(Cl)cc(Cl)cc1Cl)ON=C1CCCCC1
inactive
